Field: LogPA−(d) 1-octanol-water partition coefficient. Provide a value for each of the molecules that follow.
# test: 1-octanol-water partition coefficient (LogPA-)
# test.conditions: ionized species
When you answer, write just the number.

Req: Record request: LogPA−(d) 1-octanol-water partition coefficient value, item C[C@H](CCC(=O)NCCS(=O)(=O)O)[C@H]1CC[C@H]2[C@@H]3[C@@H](O)C[C@@H]4C[C@H](O)CC[C@]4(C)[C@H]3CC[C@]12C
Resp: 1.1

Req: Next: CC[C@H]1[C@@H](O)C2C3CCC(C(C)CC(C)C(=O)O)[C@@]3(C)[C@@H](O)CC2[C@@]2(C)CC[C@@H](O)C[C@@H]12 (stereo in doubt)
Resp: 1.4

Req: Next: CC[C@H]1[C@@H](O)C2C3C[C@H](O)[C@H]([C@H](C)CCC(=O)O)[C@@]3(C)CCC2[C@@]2(C)CC[C@@H](O)C[C@@H]12 (some centres unmarked)
Resp: 1.6

Req: Next: CC[C@H]1[C@@H](O)[C@@H]2[C@H](CC[C@]3(C)[C@@H]([C@H](C)CCC(=O)O)CC[C@@H]23)[C@@]2(C)CC[C@@H](O)C[C@@H]12
Resp: 2.5

Req: Next: C[C@H](CCC(=O)O)[C@H]1CC[C@H]2[C@@H]3[C@@H](O)C[C@@H]4C[C@H](O)CC[C@]4(C)[C@H]3CC[C@]12C
Resp: 2.2

---

# test: 1-octanol-water partition coefficient (LogPA-)
# test.conditions: ionized species
Kindly return class 1 if reported LogPA−(d) 1-octanol-water partition coefficient is no lower than 2; return class 0 if it is lower.

Req: For this compound, is measured LogPA−(d) 1-octanol-water partition coefficient 2 or higher? CC[C@H]1[C@@H](O)[C@@H]2[C@H]([C@@H](O)C[C@]3(C)[C@@H]([C@H](C)CCC(=O)O)CC[C@@H]23)[C@@]2(C)CC[C@@H](O)C[C@@H]12 [Compound 100]
Resp: class 0

Req: Next: C[C@H](CCC(=O)O)[C@H]1CC[C@H]2[C@@H]3[C@H](O)C[C@@H]4C[C@H](O)CC[C@]4(C)[C@H]3CC[C@]12C [CDCA, chenodeoxycholic acid]
Resp: class 1

Req: Next: CC[C@H]1[C@@H](O)C2C3CC[C@H]([C@H](C)C[C@H](C)C(=O)O)[C@@]3(C)CCC2[C@@]2(C)CC[C@@H](O)C[C@@H]12 (some centres unmarked) [Compound D]
Resp: class 1

Req: Next: C[C@H](CCC(=O)NCCS(=O)(=O)O)[C@H]1CC[C@H]2[C@@H]3[C@H](O)C[C@@H]4C[C@H](O)CC[C@]4(C)[C@H]3CC[C@]12C [TCDCA, taurochenodeoxycholic acid]
Resp: class 0

---

Field: STCMC(c) (Dyne/cm) Surface Tension at CMC. Provide a value for each of the compounds that follow.
# test: Surface tension at CMC
# Assay type: physicochemical
# test.conditions: […] NaCl water solution
Provide only the numeric value, understood in Dyne/cm.

Req: Record request: STCMC(c) (Dyne/cm) Surface Tension at CMC value, item CC[C@H]1[C@@H](O)C2C3CCC(C(C)CC(C)C(=O)O)[C@@]3(C)[C@@H](O)CC2[C@@]2(C)CC[C@@H](O)C[C@@H]12 (stereo in doubt) [Compound C]
Resp: 50.1

Req: Next: C[C@H](CCC(=O)O)[C@H]1CC[C@H]2[C@@H]3[C@@H](O)C[C@@H]4C[C@H](O)CC[C@]4(C)[C@H]3CC[C@]12C [UDCA, ursodeoxycholic acid]
Resp: 50.5

Req: Next: C[C@H](CCC(=O)O)[C@H]1CC[C@H]2[C@@H]3[C@H](O)C[C@@H]4C[C@H](O)CC[C@]4(C)[C@H]3CC[C@]12C [CDCA, chenodeoxycholic acid]
Resp: 45.5

Req: Next: CC[C@H]1[C@@H](O)C2C3C[C@H](O)[C@H]([C@H](C)CCC(=O)O)[C@@]3(C)CCC2[C@@]2(C)CC[C@@H](O)C[C@@H]12 (some centres unmarked) [Compound E]
Resp: 52.4
